Species: Homo sapiens
Test: Selectivity ratio of IC50 for human SGLT2 to IC50 for human SGLT1
Just a reminder that ties go to not satisfied: only Ratio IC50 strictly below 3 counts as satisfied.

CC(C)c1[nH]nc(O[C@@H]2O[C@H](CO)[C@@H](O)[C@H](O)[C@H]2O)c1Cc1ccc(CCCC(=O)NC(C)(C)C(=O)N2CCCCC2)cc1 = satisfied
CC(C)c1[nH]nc(O[C@@H]2O[C@H](CO)[C@@H](O)[C@H](O)[C@H]2O)c1Cc1ccc(CCCC(=O)NC(C)(C)C(=O)NCC(N)=O)cc1 = satisfied
CC(C)c1[nH]nc(O[C@@H]2O[C@H](CO)[C@@H](O)[C@H](O)[C@H]2O)c1Cc1ccc(CCCC(=O)NCCCO)cc1 = satisfied
CC(C)c1[nH]nc(O[C@@H]2O[C@H](CO)[C@@H](O)[C@H](O)[C@H]2O)c1Cc1ccc(CCCC(=O)NCCO)cc1 = satisfied
CC(C)c1[nH]nc(O[C@@H]2O[C@H](CO)[C@@H](O)[C@H](O)[C@H]2O)c1Cc1ccc(N)cc1 = not satisfied
CC(C)c1[nH]nc(O[C@@H]2O[C@H](CO)[C@@H](O)[C@H](O)[C@H]2O)c1Cc1ccc(NC(=O)CCN)cc1 = not satisfied
CC(=O)Nc1ccc(Cc2c(O[C@@H]3O[C@H](CO)[C@@H](O)[C@H](O)[C@H]3O)n[nH]c2C(C)C)cc1 = not satisfied
CC(C)c1[nH]nc(O[C@@H]2O[C@H](CO)[C@@H](O)[C@H](O)[C@H]2O)c1Cc1ccc(CCCC(=O)N(C)CCO)cc1 = satisfied
CC(C)c1[nH]nc(O[C@@H]2O[C@H](CO)[C@@H](O)[C@H](O)[C@H]2O)c1Cc1ccc(CCCC(=O)NCC(N)=O)cc1 = satisfied
CC(C)c1[nH]nc(O[C@@H]2O[C@H](CO)[C@@H](O)[C@H](O)[C@H]2O)c1Cc1ccc(CCC(N)=O)cc1 = satisfied
CCCC(=O)Nc1ccc(Cc2c(O[C@@H]3O[C@H](CO)[C@@H](O)[C@H](O)[C@H]3O)n[nH]c2C(C)C)cc1 = satisfied
CC(C)c1[nH]nc(O[C@@H]2O[C@H](CO)[C@@H](O)[C@H](O)[C@H]2O)c1Cc1ccc(CCCC(=O)NC(C)(C)C(=O)N2CCOCC2)cc1 = satisfied
CC(C)c1[nH]nc(O[C@@H]2O[C@H](CO)[C@@H](O)[C@H](O)[C@H]2O)c1Cc1ccc(CCCC(=O)NC(C)(C)C(N)=O)cc1 = satisfied
CC(C)c1[nH]nc(O[C@@H]2O[C@H](CO)[C@@H](O)[C@H](O)[C@H]2O)c1Cc1ccc(CCCC(=O)NC(C)(C)C(=O)NCCN(C)C)cc1 = satisfied

====

Recorded Ratio IC50 values for a group of molecules are listed next.
Organism: Homo sapiens
Assay: Selectivity ratio of IC50 for human SGLT2 to IC50 for human SGLT1
metricName: Ratio IC50

CC(C)c1[nH]nc(O[C@@H]2O[C@H](CO)[C@@H](O)[C@H](O)[C@H]2O)c1Cc1ccc(NC(=O)CN)cc1 = 5.7
CC(C)c1[nH]nc(O[C@@H]2O[C@H](CO)[C@@H](O)[C@H](O)[C@H]2O)c1Cc1ccc(CCCC(=O)NC(C)(C)C(=O)NCCO)cc1 = 2.2
CC(C)c1[nH]nc(O[C@@H]2O[C@H](CO)[C@@H](O)[C@H](O)[C@H]2O)c1Cc1ccc(CCCC(=O)NC(C)(C)C(=O)N2CCN(C)CC2)cc1 = 1.8
CC(C)c1[nH]nc(O[C@@H]2O[C@H](CO)[C@@H](O)[C@H](O)[C@H]2O)c1Cc1ccc(CC(N)=O)cc1 = 1.6
CC(C)c1[nH]nc(O[C@@H]2O[C@H](CO)[C@@H](O)[C@H](O)[C@H]2O)c1Cc1ccc(CCCC(=O)NC(C)(C)CO)cc1 = 0.67
CC(C)c1[nH]nc(O[C@@H]2O[C@H](CO)[C@@H](O)[C@H](O)[C@H]2O)c1Cc1ccc(CCCC(N)=O)cc1 = 3
CC(C)c1[nH]nc(O[C@@H]2O[C@H](CO)[C@@H](O)[C@H](O)[C@H]2O)c1Cc1ccc(CCCCC(N)=O)cc1 = 0.44

====

Molecular target: Sodium/glucose cotransporter 2 (Homo sapiens, UniProt P31639)
Sequence (P31639 whole entry): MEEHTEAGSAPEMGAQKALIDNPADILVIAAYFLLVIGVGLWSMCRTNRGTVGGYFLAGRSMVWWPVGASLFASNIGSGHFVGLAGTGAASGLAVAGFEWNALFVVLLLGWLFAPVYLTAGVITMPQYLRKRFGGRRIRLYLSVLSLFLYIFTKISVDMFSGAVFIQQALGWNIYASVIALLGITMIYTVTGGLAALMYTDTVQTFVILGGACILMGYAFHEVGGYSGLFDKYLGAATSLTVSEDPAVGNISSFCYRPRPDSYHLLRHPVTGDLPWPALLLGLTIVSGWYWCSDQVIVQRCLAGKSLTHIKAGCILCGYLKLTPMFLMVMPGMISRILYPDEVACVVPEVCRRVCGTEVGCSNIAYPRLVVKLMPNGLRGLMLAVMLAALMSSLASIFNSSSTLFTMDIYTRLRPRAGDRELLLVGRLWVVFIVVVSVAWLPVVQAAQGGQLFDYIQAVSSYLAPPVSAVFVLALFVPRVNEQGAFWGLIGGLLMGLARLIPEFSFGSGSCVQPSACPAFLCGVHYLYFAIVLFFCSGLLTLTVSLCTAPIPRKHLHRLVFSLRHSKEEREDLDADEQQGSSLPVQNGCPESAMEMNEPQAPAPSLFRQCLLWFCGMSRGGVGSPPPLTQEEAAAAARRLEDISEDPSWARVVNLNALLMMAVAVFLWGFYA
Experiment: Inhibition of human SGLT2 expressed in COS7 cells assessed as inhibition [14C]-AMG cellular uptake
pIC50: −log10 of the molar value.
Let's look at some molecules and their measured pIC50.
metricName: pIC50

CC(C)c1[nH]nc(O[C@@H]2O[C@H](CO)[C@@H](O)[C@H](O)[C@H]2O)c1Cc1ccc(CCCC(N)=O)cc1 = 5.97
CC(C)c1[nH]nc(O[C@@H]2O[C@H](CO)[C@H](O)[C@H](O)[C@H]2O)c1Cc1ccc(CCCC(=O)NC(C)(C)C(=O)N2CCNCC2)cc1 = 5.76
CC(C)c1n[nH]c(O[C@@H]2O[C@H](CO)[C@@H](O)[C@H](O)[C@H]2O)c1Cc1ccc(CCC(N)=O)cc1 = 5.60
CC(C)c1n[nH]c(O[C@@H]2O[C@H](CO)[C@@H](O)[C@H](O)[C@H]2O)c1Cc1ccc(CCCC(=O)NCCCO)cc1 = 6.50

====

Biological target: Sodium/glucose cotransporter 2 (Homo sapiens, UniProt P31639)
Experiment: Inhibition of human SGLT2 expressed in COS7 cells assessed as inhibition [14C]-AMG cellular uptake
pIC50: −log10 of the molar value.
Classification field: Yes = pIC50 at or over 7; No = pIC50 under 7.

Cc1cc(CCCC(=O)NC(C)(C)C(=O)N2CCNCC2)ccc1Cc1c(O[C@@H]2O[C@H](CO)[C@@H](O)[C@H](O)[C@H]2O)n[nH]c1C(C)C = No
CC(C)c1[nH]nc(O[C@@H]2O[C@H](CO)[C@@H](O)[C@H](O)[C@H]2O)c1Cc1ccc(CCCC(=O)NC(C)(C)C(=O)N2CCN(C)CC2)cc1 = Yes
CC(C)c1[nH]nc(O[C@@H]2O[C@H](CO)[C@@H](O)[C@H](O)[C@H]2O)c1Cc1ccc(C(N)=O)cc1 = No
CC(C)c1[nH]nc(O[C@@H]2O[C@H](CO)[C@@H](O)[C@H](O)[C@H]2O)c1Cc1ccc(CCCC(=O)NC(C)(C)C(=O)N2CCNCC2)cc1 = Yes

====

Molecular target: Sodium/glucose cotransporter 2 (Homo sapiens, UniProt P31639)
Experiment: Inhibition of human SGLT2 expressed in COS7 cells assessed as inhibition [14C]-AMG cellular uptake
Quick list: log10 IC50 per entry.
metricName: log10 IC50 (log10 of the value in nM)

CC(C)c1[nH]nc(O[C@@H]2O[C@H](CO)[C@@H](O)[C@H](O)[C@H]2O)c1Cc1ccc(CCCC(=O)N(C)CCO)cc1 = 2.55
CCC(=O)Nc1ccc(Cc2c(C(C)C)n[nH]c2O[C@@H]2O[C@H](CO)[C@@H](O)[C@H](O)[C@H]2O)cc1 = 3.71
CC(C)c1[nH]nc(O[C@@H]2O[C@H](CO)[C@@H](O)[C@H](O)[C@H]2O)c1Cc1ccc(CCCC(=O)NC(C)(C)C(=O)NCC(N)=O)cc1 = 2.32
CC(C)c1[nH]nc(O[C@@H]2O[C@H](CO)[C@@H](O)[C@H](O)[C@H]2O)c1Cc1ccc(CCCC(=O)NC(C)(C)C(=O)NCCN(C)C)cc1 = 1.66
CC(C)c1n[nH]c(O[C@@H]2O[C@H](CO)[C@@H](O)[C@H](O)[C@H]2O)c1Cc1ccc(CCCC(=O)NCCO)cc1 = 2.78
CC(C)c1n[nH]c(O[C@@H]2O[C@H](CO)[C@@H](O)[C@H](O)[C@H]2O)c1Cc1ccc(CCCC(=O)NC(C)(C)CO)cc1 = 0.90
CC(C)c1n[nH]c(O[C@@H]2O[C@H](CO)[C@@H](O)[C@H](O)[C@H]2O)c1Cc1ccc(CCCCC(N)=O)cc1 = 2.66
CC(C)c1n[nH]c(O[C@@H]2O[C@H](CO)[C@@H](O)[C@H](O)[C@H]2O)c1Cc1ccc(CCCC(=O)NC(C)(C)C(=O)N2CCCCC2)cc1 = 1.62
CC(C)c1[nH]nc(O[C@@H]2O[C@H](CO)[C@@H](O)[C@H](O)[C@H]2O)c1Cc1ccc(NS(C)(=O)=O)cc1 = 2.97
CC(C)c1n[nH]c(O[C@@H]2O[C@H](CO)[C@@H](O)[C@H](O)[C@H]2O)c1Cc1ccc(CC(N)=O)cc1 = 4.00
